molecular target: amaranthin (Amaranthus caudatus, UniProt Q71QF2); assay: Hapten inhibition of amaranthin/asialo-ovine submaxillary mucin precipitation; format: binding; conditions: N-Acetylgalactosamine = 1
Sequence (Q71QF2 entry or part of it): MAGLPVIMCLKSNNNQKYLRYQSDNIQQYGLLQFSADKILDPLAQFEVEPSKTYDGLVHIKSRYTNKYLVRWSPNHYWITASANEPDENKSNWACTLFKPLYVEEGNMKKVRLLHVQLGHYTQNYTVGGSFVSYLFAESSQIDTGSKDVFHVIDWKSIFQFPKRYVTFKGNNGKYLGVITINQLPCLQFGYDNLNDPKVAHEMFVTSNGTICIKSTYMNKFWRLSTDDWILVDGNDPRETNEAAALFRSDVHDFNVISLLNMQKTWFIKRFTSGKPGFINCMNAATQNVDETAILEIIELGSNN
measured quantity: Relative Inhibition potency ACA
Answers are plain numbers.

I would be grateful if you could provide Relative Inhibition potency ACA for each of the following entries.
1. CC(=O)N[C@H]1[C@@H](Oc2ccc([N+](=O)[O-])cc2)O[C@H](CO)[C@H](O)[C@@H]1O [p-NitrophenylN-acetyl-α-galactosiminide]
2. CC(=O)N[C@H]1[C@H](O[C@H]2[C@@H](O)[C@@H](CO)O[C@@H](O[C@H]3[C@@H](O)[C@@H](CO)O[C@H](OCc4ccccc4)[C@@H]3NC(C)=O)[C@@H]2O)O[C@H](CO)[C@@H](O)[C@@H]1O

Ans:
1: 1.8; 2: 32

----------
target: amaranthin (Amaranthus caudatus, UniProt Q71QF2); assay: Hapten inhibition of amaranthin/asialo-ovine submaxillary mucin precipitation; type: binding
measured quantity: inhibition of amaranthin/AOSM precipitation, in words

N[C@H]1C(O)O[C@H](CO)[C@H](O)[C@@H]1O (some centres unmarked) [Galactosamine] | very poor inhibitors
CO[C@H]1O[C@H](CO)[C@H](O)[C@H](O[C@@H]2O[C@H](CO)[C@H](O)[C@H](O)[C@H]2O)[C@H]1O [Galβ1,3Galα-O-CH3] | very poor inhibitors

----------
Quick note: these are log10(IC50) numbers for system: amaranthin (Amaranthus caudatus, UniProt Q71QF2)
// stored as log10 of IC50 expressed in µM

The examples below pair each entry with its known result.
CC(=O)N[C@H]1C(O)O[C@H](CO)[C@H](O)[C@@H]1O (some centres unmarked) [N-Acetylgalactosamine] | 2.90
COC(=O)[C@H](CO[C@H]1O[C@H](CO)[C@H](O)[C@H](O)[C@H]1NC(C)=O)NC(=O)OCc1ccccc1 | 1.72
CC(=O)N[C@H]1[C@@H](OCc2ccccc2)O[C@H](CO)[C@H](O)[C@@H]1O[C@@H]1O[C@H](CO)[C@H](O)[C@H](O)[C@H]1O [Galβ1,3GalNAcα-O-benzyl] | 0.20
CC(=O)N[C@H]1[C@@H](Oc2ccccc2[N+](=O)[O-])O[C@H](CO)[C@H](O)[C@@H]1O[C@@H]1O[C@H](CO)[C@H](O)[C@H](O)[C@H]1O [Galβ1,3GalNAcα-O-o-nitrophenyl] | 0.32
CO[C@H]1[C@@H](O)[C@@H](CO)O[C@@H](O[C@H]2[C@@H](O)[C@@H](CO)O[C@H](OCc3ccccc3)[C@@H]2NC(C)=O)[C@@H]1O [3-O-Methyl Galβ1,3GalNAcα-O-benzyl] | 0.30

Fill in log10(IC50) for each of the 6 compounds listed.
1. CO[C@@H]1O[C@H](CO)[C@H](O)[C@H](O)[C@H]1NC(C)=O [Methyl N-acetyl-β-galactosaminide]
2. CO[C@H]1O[C@H](CO)[C@H](O)[C@H](O)[C@H]1NC(C)=O [Methyl N-acetyl-α-galactosaminide]
3. CO[C@H]1O[C@H](CO)[C@H](O)[C@H](O[C@@H]2O[C@H](CO)[C@@H](O)[C@H](O)[C@H]2O)[C@H]1NC(C)=O [Gacβ1,3GalNAcα-O-CH3]
4. CC(=O)N[C@H]1[C@@H](OCc2ccccc2)O[C@H](CO)[C@H](O)[C@@H]1O[C@@H]1O[C@H](C)[C@H](O)[C@H](O)[C@H]1O [D-Fubcβ1,3GalNAcα-O-benzyl]
5. CC(=O)N[C@H]1[C@@H](O[C@H]2[C@@H](O)[C@@H](CO)OC(O)[C@@H]2O)O[C@H](CO)[C@H](O)[C@@H]1O (some centres unmarked) [GalNAcα1,3Gal]
6. CO[C@H]1O[C@H](CO)[C@H](O)[C@H](O[C@@H]2O[C@H](CO)[C@H](O)[C@H](O)[C@H]2O)[C@H]1NC(C)=O [Galβ1,3GalNAcα-O-CH3]

Ans:
4.05
2.40
1.56
0.28
2.49
0.49

----------
target: amaranthin (Amaranthus caudatus); test: Hapten inhibition of amaranthin/asialo-ovine submaxillary mucin precipitation; type: binding; details: N-Acetylgalactosamine = 1
Kindly supply the reported Relative Inhibition potency ACA values for the records listed here.
One number for each entry.

Here's what some known entries look like.
CO[C@H]1O[C@H](CO)[C@H](O)[C@H](O)[C@H]1OC(C)=O [Methyl (2-O-acetyl)-α-galactoside] | 0.4
CC(=O)N[C@H]1[C@H](OC[C@H]2OC(O)[C@H](O)[C@@H](O)[C@H]2O)O[C@H](CO)[C@H](O)[C@@H]1O (stereo partly drawn) | 0.8
CO[C@H]1O[C@H](CO)[C@H](O)[C@H](O)[C@H]1NC(=O)c1ccccc1 [Methyl (2-N-benzamido)-α-galactosaminide] | 0.9

Q: Any idea what Relative Inhibition potency ACA was measured for CO[C@H]1O[C@H](CO)[C@H](O)[C@H](O[C@@H]2O[C@H](CO)[C@@H](O)[C@H](O)[C@H]2O)[C@H]1NC(C)=O ?
Ans: 22

----------
Would you mind telling me the reported Relative Inhibition potency ACA of each entry?
biological target: amaranthin (Amaranthus caudatus); test: Hapten inhibition of amaranthin/asialo-ovine submaxillary mucin precipitation; type: binding; settings: N-Acetylgalactosamine = 1
One number for each entry.

Examples from the recorded data:
C=CCO[C@@H]1O[C@H](CO)[C@H](O)[C@H](O[C@@H]2O[C@H](CO)[C@H](O)[C@H](O)[C@H]2O)[C@H]1NC(C)=O [Galβ1,3GalNAcβ-O-CH2 -CH = CH2] | 23
CO[C@H]1O[C@H](CO)[C@H](O)[C@H](O)[C@H]1NC(C)=O [Methyl N-acetyl-α-galactosaminide] | 3.2
CO[C@H]1[C@@H](O)[C@@H](CO)O[C@@H](O[C@H]2[C@@H](O)[C@@H](CO)O[C@H](OCc3ccccc3)[C@@H]2NC(C)=O)[C@@H]1O [3-O-Methyl Galβ1,3GalNAcα-O-benzyl] | 395
CC(=O)N[C@H]1[C@@H](O[C@H]2[C@@H](O)[C@@H](CO)OC(O)[C@@H]2O)O[C@H](CO)[C@H](O)[C@@H]1O (stereo partly shown) [GalNAcα1,3Gal] | 2.5

Q: Short answer please: Relative Inhibition potency ACA, amaranthin (Amaranthus caudatus), entry CO[C@@H]1O[C@H](CO)[C@H](O)[C@H](O)[C@H]1NC(C)=O [Methyl N-acetyl-β-galactosaminide]
Ans: 0.07

----------
Give Relative Inhibition potency ACA for every item shown.
target: UniProtKB Q71QF2; test: Hapten inhibition of amaranthin/asialo-ovine submaxillary mucin precipitation; type: binding; conditions: N-Acetylgalactosamine = 1
Give bare numbers.

COC(=O)[C@H](CO[C@H]1O[C@H](CO)[C@H](O)[C@H](O)[C@H]1NC(C)=O)NC(=O)OCc1ccccc1 | 15

Q: Param item = CO[C@H]1O[C@H](CO)[C@H](O)[C@H](O)[C@H]1NC(=O)c1ccc([N+](=O)[O-])cc1 ; retrieve measured Relative Inhibition potency ACA.
Ans: 5.6

----------
Target: PNA (Arachis hypogaea, UniProt P02872)
Construct: purchased E.Y. Laboratories, San Mateo, Calif; (donated by Dr. A. Chu)
Sequence (P02872 24-273): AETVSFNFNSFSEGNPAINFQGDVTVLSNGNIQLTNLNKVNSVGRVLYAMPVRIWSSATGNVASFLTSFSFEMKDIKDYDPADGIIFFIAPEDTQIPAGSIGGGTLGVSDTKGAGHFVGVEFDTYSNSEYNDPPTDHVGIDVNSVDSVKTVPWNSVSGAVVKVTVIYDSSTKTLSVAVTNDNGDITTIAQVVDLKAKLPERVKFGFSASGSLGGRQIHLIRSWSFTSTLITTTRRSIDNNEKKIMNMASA
Assay: Hapten inhibition of PNA/asialoglycophorin precipitation
Assay type: binding
Details: Galactose = 1; 40 μg PNA, 6 μg asialoglycophorin
measured quantity: Relative Inhibition potency PNA
Give bare numbers.

CO[C@@H]1O[C@H](CO)[C@H](O)[C@H](O[C@@H]2O[C@H](CO)[C@H](O)[C@H](O[C@@H]3O[C@H](CO)[C@H](O)[C@H](O)[C@H]3O)[C@H]2NC(C)=O)[C@H]1O | 38
CC(=O)N[C@H]1CO[C@H](CO)[C@H](O)[C@@H]1O[C@@H]1O[C@H](CO)[C@H](O)[C@H](O)[C@H]1O | 14
CO[C@H]1O[C@H](CO)[C@H](O)[C@H](O)[C@H]1O [Methyl α-galactoside] | 2.2
CO[C@@H]1O[C@H](CO)[C@H](O)[C@H](O)[C@H]1O [Methyl β-galactoside] | 0.8
CC(=O)N[C@H]1[C@@H](OCc2ccccc2)O[C@H](CO)[C@H](O)[C@@H]1O[C@@H]1O[C@H](C)[C@H](O)[C@H](O)[C@H]1O | 11

Report Relative Inhibition potency PNA for every entry below.
1. CO[C@H]1O[C@H](CO)[C@H](O)[C@H](O[C@@H]2O[C@H](CO)[C@H](O)[C@H](O)[C@H]2O)[C@H]1O
2. COC(=O)CCCCCCCCO[C@H]1O[C@H](CO)[C@H](O)[C@H](O[C@@H]2O[C@H](CO)[C@H](O)[C@H](O)[C@H]2O)[C@H]1NC(C)=O

Ans:
1. 4.2
2. 47

# return Relative Inhibition potency PNA for each item in the list
1. CO[C@H]1O[C@H](CO)[C@H](O)[C@H](O[C@@H]2O[C@H](CO)[C@H](O)[C@H](O)[C@H]2O)[C@H]1NC(C)=O
2. C=CCO[C@H]1O[C@H](CO)[C@H](O)[C@H](O[C@@H]2O[C@H](CO)[C@H](O)[C@H](O)[C@H]2O)[C@H]1NC(C)=O
3. CC(=O)N[C@H]1[C@@H](OCc2ccccc2)O[C@H](CO)[C@H](O)[C@@H]1O[C@@H]1O[C@H](CO)[C@H](O)[C@H](O)[C@H]1O

Ans:
1. 47
2. 38
3. 50
